What change in vivo at 180 mg/kg/day was measured for each of the following?
Tested on: plasma cholesterol
Test: Hypocholesterolemic activity, plasma cholesterol in mice fed test compound in diet
Format: in vivo, OF1 strain mice
Settings: Mus musculus, feed or water, 240 h, read-out: Plasma Cholesterol (% Control), 0.1% compound in food, 10 days, ca. 180 mg/kg daily, mouse
Dear colleague, please return just the value in %, with no unit written.

Please look up its change in vivo at 180 mg/kg/day: CCOP(=O)(OCC)C(NCCc1cccn1C)c1cc(C(C)(C)C)c(O)c(C(C)(C)C)c1 (stereo not shown)
12

Input CCOP(=O)(OCC)C(Nc1cccnc1)c1cc(C(C)(C)C)c(O)c(C(C)(C)C)c1 (stereo not shown)
-35

Input CCOP(=O)(OCC)C(NCCCCc1ccccc1)c1cc(C(C)(C)C)c(O)c(C(C)(C)C)c1 (stereo not shown)
-43

Input CCOP(=O)(OCC)C(NCCc1ccc(Cl)cc1)c1cc(C(C)(C)C)c(O)c(C(C)(C)C)c1 (stereo not shown)
-43

Input CCOP(=O)(OCC)C(NCCN1CCCCC1)c1cc(C(C)(C)C)c(O)c(C(C)(C)C)c1 (stereo not shown)
-5

Input COP(=O)(OC)C(NCCCc1ccccc1)c1cc(C(C)(C)C)c(O)c(C(C)(C)C)c1 (stereo not shown)
-33

Input CCOP(=O)(OCC)C(NC(C)CCc1ccccc1)c1cc(C(C)(C)C)c(O)c(C(C)(C)C)c1 (stereo not shown)
-12

Input CCOc1ccc(NC(c2cc(C(C)(C)C)c(O)c(C(C)(C)C)c2)P(=O)(OCC)OCC)cc1 (stereo not shown)
-31

Input CCOP(=O)(OCC)C(NC(C)c1cccc2ccccc12)c1cc(C(C)(C)C)c(O)c(C(C)(C)C)c1 (stereo not shown)
-3

Input CCOP(=O)(OCC)C(Nc1ccc2c(c1)CCC2)c1cc(C(C)(C)C)c(O)c(C(C)(C)C)c1 (stereo not shown)
-2

Input CC(=O)N(CCCc1ccccc1)C(c1cc(C(C)(C)C)c(O)c(C(C)(C)C)c1)P(=O)(OC(C)C)OC(C)C (stereo not shown)
-32

Input CCOP(=O)(OCC)C(NCCc1ccc(Cl)cc1)c1ccc(O)cc1 (stereo not shown)
-16

Input CCOP(=O)(OCC)C(NCCc1ccc(C)cc1)c1cc(C(C)(C)C)c(O)c(C(C)(C)C)c1 (stereo not shown)
-6

Input CCOP(=O)(OCC)C(Nc1ccc2c(c1)Cc1ccccc1-2)c1cc(C(C)(C)C)c(O)c(C(C)(C)C)c1 (stereo not shown)
3

Input CCOP(=O)(OCC)C(NCCc1ccccc1)c1cc(C(C)(C)C)c(O)c(C(C)(C)C)c1 (stereo not shown)
-28

Input CCCCOP(=O)(OCCCC)C(NCCCc1ccccc1)c1cc(C(C)(C)C)c(O)c(C(C)(C)C)c1 (stereo not shown)
-4

Input CCOP(=O)(OCC)C(Nc1ccccc1)c1cc(C(C)(C)C)c(O)c(C(C)(C)C)c1 (stereo not shown)
-30

Input CCCCOP(=O)(OCCCC)C(c1cc(C(C)(C)C)c(O)c(C(C)(C)C)c1)N(CCCc1ccccc1)C(C)=O (stereo not shown)
4

Input CC(C)OP(=O)(OC(C)C)C(NCCc1ccc(Cl)cc1)c1cc(C(C)(C)C)c(O)c(C(C)(C)C)c1 (stereo not shown)
-33

Input CCCCOc1ccc(C(NCCc2ccccc2)P(=O)(OCC)OCC)cc1 (stereo not shown)
2

Input CCOP(=O)(OCC)C(Nc1ccc(OC)cc1)c1cc(C(C)(C)C)c(O)c(C(C)(C)C)c1 (stereo not shown)
-47

Input CCCCOP(=O)(OCCCC)C(NCCc1ccc(Cl)cc1)c1cc(C(C)(C)C)c(O)c(C(C)(C)C)c1 (stereo not shown)
-9

Input CCOP(=O)(OCC)C(NCc1ccccc1)c1cc(OC)c(O)c(OC)c1 (stereo not shown)
1

Input CCOP(=O)(OCC)C(NC(C)(C)C)c1cc(C(C)(C)C)c(O)c(C(C)(C)C)c1 (stereo not shown)
8

Input CCOP(=O)(OCC)C(NCc1ccccc1)c1cc(C(C)(C)C)c(O)c(C(C)(C)C)c1 (stereo not shown)
-23

Input CCOP(=O)(OCC)C(NCCCc1ccccc1)c1ccc2c(c1)OCO2 (stereo not shown)
-29

Input CCOP(=O)(OCC)C(N)c1cc(C(C)(C)C)c(O)c(C(C)(C)C)c1 (stereo not shown)
4

Input CCOP(=O)(OCC)C(NCCc1ccccc1)c1cc(C)c(O)c(C)c1 (stereo not shown)
-1

Input COP(=O)(OC)C(c1cc(C(C)(C)C)c(O)c(C(C)(C)C)c1)N(CCCc1ccccc1)C(C)=O (stereo not shown)
-36

Input CCOP(=O)(OCC)C(NCCCc1ccccc1)c1cc(C(C)(C)C)c(OC)c(C(C)(C)C)c1 (stereo not shown)
-22

Input CCOP(=O)(OCC)C(Nc1nc2ccccc2s1)c1cc(C(C)(C)C)c(O)c(C(C)(C)C)c1 (stereo not shown)
-17
